# target system: T1, cyno TfR extracellular domain (analogous construct to human TfR ecd) (cynomolgus monkey, UniProt Q5RDH6 87-760 (Pongo abelii entry))
# T1 construct: also called cynoTfR ecd
# T1 chain: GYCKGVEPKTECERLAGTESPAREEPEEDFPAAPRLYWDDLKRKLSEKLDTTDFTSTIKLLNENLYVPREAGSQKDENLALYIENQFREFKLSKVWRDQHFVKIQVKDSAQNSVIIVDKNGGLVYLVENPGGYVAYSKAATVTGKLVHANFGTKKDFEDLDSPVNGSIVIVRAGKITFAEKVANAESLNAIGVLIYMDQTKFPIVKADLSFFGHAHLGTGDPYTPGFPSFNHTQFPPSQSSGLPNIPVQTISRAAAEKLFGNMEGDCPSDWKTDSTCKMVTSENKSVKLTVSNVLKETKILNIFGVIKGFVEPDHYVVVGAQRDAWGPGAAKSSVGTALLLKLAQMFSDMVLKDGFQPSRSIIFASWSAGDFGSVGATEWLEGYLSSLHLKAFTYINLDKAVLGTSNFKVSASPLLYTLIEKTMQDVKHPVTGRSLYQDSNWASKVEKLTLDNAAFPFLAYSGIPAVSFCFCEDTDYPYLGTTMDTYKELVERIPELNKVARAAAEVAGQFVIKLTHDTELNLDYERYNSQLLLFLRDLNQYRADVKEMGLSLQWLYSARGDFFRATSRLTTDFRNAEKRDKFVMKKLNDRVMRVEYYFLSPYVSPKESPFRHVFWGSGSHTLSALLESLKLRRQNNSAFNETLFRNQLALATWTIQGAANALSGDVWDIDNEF
# assay name: SPR, KD on cyno TfR over KD on human TfR
measured metric: Cy/hu ratio
Give only the figure.

Quick check: Cy/hu ratio of Hu15G11.HC34A Fab (Fab, V domains shown, Fab) VH: EVQLVQSGAEVKKPGASVKVSCKASGYTFTSYWAHWVRQAPGQRLEWIGEINPTNGRTNYIEKFKSRATLTVDKSASTAYMELSSLRSEDTAVYYCARGTRAYHYWGQGTMVTVSS VL: DIQMTQSPSSLSASVGDRVTITCRASDNLYSNLAWYQQKPGKSPKLLVYDATNLADGVPSRFSGSGSGTDYTLTISSLQPEDFATYYCQHFWGTPLTFGQGTKVEIK ?
4.6

Quick check: Cy/hu ratio of Hu15G11.HC53A Fab (Fab, V domains shown, Fab; also called 15G11.53A Fab) VH: EVQLVQSGAEVKKPGASVKVSCKASGYTFTSYWMHWVRQAPGQRLEWIGEINPANGRTNYIEKFKSRATLTVDKSASTAYMELSSLRSEDTAVYYCARGTRAYHYWGQGTMVTVSS VL: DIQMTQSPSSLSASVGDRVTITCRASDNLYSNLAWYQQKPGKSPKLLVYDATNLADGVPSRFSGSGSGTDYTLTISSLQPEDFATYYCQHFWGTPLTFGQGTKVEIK ?
4

Quick check: Cy/hu ratio of Hu15G11.v5.Fab (Fab, V domains shown, Fab) VH: EVQLVQSGAEVKKPGASVKVSCKASGYTFTSYWMHWVRQAPGQRLEWIGEINPTNGRTNYIEKFKSRATLTVDKSASTAYMELSSLRSEDTAVYYCARGTRAYHYWGQGTMVTVSS VL: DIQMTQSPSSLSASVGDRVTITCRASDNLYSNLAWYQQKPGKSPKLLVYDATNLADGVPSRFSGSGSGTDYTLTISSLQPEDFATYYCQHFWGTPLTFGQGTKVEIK ?
4

Quick check: Cy/hu ratio of Hu15G11.HC51A Fab (Fab, V domains shown, Fab) VH: EVQLVQSGAEVKKPGASVKVSCKASGYTFTSYWMHWVRQAPGQRLEWIGEANPTNGRTNYIEKFKSRATLTVDKSASTAYMELSSLRSEDTAVYYCARGTRAYHYWGQGTMVTVSS VL: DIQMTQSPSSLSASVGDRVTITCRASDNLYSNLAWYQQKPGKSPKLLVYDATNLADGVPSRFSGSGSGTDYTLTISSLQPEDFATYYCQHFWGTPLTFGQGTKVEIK ?
4.4

Data provenance is patent US20180057604A1.
